Data provenance: patent US20050165218A1

Each item that follows carries a reported fold induction at 10 µM.
- TARGET DESC: RORα (Homo sapiens, UniProt P35398)
- Sequence (P35398 1-556 isoform P35398-1): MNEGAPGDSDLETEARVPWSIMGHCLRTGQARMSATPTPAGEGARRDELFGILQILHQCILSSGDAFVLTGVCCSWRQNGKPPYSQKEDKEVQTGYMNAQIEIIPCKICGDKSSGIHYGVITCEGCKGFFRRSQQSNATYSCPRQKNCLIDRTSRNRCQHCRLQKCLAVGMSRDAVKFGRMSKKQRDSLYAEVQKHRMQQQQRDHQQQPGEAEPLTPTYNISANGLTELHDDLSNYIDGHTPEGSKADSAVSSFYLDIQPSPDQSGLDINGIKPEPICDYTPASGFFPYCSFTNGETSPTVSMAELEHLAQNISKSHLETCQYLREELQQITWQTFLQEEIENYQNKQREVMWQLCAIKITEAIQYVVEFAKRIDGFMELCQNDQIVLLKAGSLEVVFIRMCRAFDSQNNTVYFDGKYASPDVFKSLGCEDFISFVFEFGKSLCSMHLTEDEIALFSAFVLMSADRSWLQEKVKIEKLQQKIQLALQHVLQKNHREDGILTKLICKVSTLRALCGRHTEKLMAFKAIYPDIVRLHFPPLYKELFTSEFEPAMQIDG
- ASSAY PROCEDURE: RORE reporter transcription in cells partially depleted of cholesterol (HPCD plus lovastatin, LDL-free serum)
- ASSAY SETUP: read-out: Fold induction (ROR alpha transcriptional activity)
Where a name gives a salt, the structure may show the parent alone.
MEASURE NAME: fold induction at 10 µM

INSERT INTO measurements (compound, target_desc, measurement) VALUES
  ('CC(C)CCC[C@@H](C)[C@H]1CC[C@H]2[C@@H]3CC=C4C[C@@H](O)CC[C@]4(C)[C@H]3CC[C@]12C [Cholesterol, cholest-5-en-3beta-ol]', 'RORα (Homo sapiens, UniProt P35398)', 3.3),
  ('C[C@H](CCCC(C)(C)O)[C@H]1CC[C@H]2[C@@H]3CC=C4C[C@@H](O)CC[C@]4(C)[C@H]3CC[C@]12C [25-OH-Chol, 5-cholesten-3beta, 25-diol]', 'RORα (Homo sapiens, UniProt P35398)', 1.6),
  ('CC(C)CCC[C@@H](C)[C@H]1CC[C@H]2[C@@H]3CC=C4C[C@H](O)CC[C@]4(C)[C@H]3CC[C@]12C [Epicholesterol, 5-Cholesten-3α-ol]', 'RORα (Homo sapiens, UniProt P35398)', 2.8),
  ('CC(C)CCC[C@@H](C)[C@H]1CC[C@H]2[C@@H]3CC=C4C[C@@H](OS(=O)(=O)O)CC[C@]4(C)[C@H]3CC[C@]12C [Chol. Sulfate, 5-cholesten-3beta-ol-sulfate]', 'RORα (Homo sapiens, UniProt P35398)', 5.4);

* * *

- TARGET DESC: UniProt P35398
- ASSAY PROCEDURE: RORE reporter transcription in cells partially depleted of cholesterol (HPCD plus lovastatin, LDL-free serum)
- ASSAY SETUP: 10 µM
- Source text: We next establish whether in eukaryotic cells partially depleted of cholesterol, RORα transcriptional activity can be reconstituted by addition of cholesterol. We therefore treat the cells with hydroxypropyl-β-cyclodextrin (HPCD), a cyclodextrin derivative known to function as a cholesterol shuttle. HPCD treatment is used in experiments aiming at the partial depletion of intracellular cholesterol. […]
MEASURE NAME: Fold induction (ROR alpha transcriptional activity)

INSERT INTO measurements (molecule, measurement) VALUES
  ('C[C@@H](CO)CCC[C@@H](C)[C@H]1CC[C@H]2[C@@H]3CC=C4C[C@@H](O)CC[C@]4(C)[C@H]3CC[C@]12C', 1.5),
  ('CC(C)CC[C@@H](O)[C@@H](C)[C@H]1CC[C@H]2[C@@H]3CC=C4C[C@@H](O)CC[C@]4(C)[C@H]3CC[C@]12C [22(R)-OH-Chol]', 1.2),
  ('CCC(CC[C@@H](C)[C@H]1CC[C@H]2[C@@H]3CC=C4C[C@@H](OC(C)=O)CC[C@]4(C)[C@H]3CC[C@]12C)C(C)C (stereo partly drawn) [5-Cholesten-24beta, 5-Cholesten-24β-ethyl-3β-ol acetate]', 1),
  ('CC(C)CCC[C@](C)(O)[C@H]1CC[C@H]2[C@@H]3CC=C4C[C@@H](O)CC[C@]4(C)[C@H]3CC[C@@]21C [20(S)-OH-Chol]', 1.2);
